# Test system: MRP1 cells, doxorubicin viability shift, 10 uM compound
# Experiment: viability protection against doxorubicin, MRP-1 line – cell-based, doxorubicin EC50 shift, dose response (AID 844)
Collected fold increase in Dox EC50 values appear next to each entry.
Readout Label: fold increase in Dox EC50

# Molecule, Observed Result
rows = [
    ("CCCCOC(=O)Nc1ccc(C(C)C)cc1", 0.78),
    ("O=C(NC(=S)Nc1nc(-c2ccccc2)cs1)c1cncc(Br)c1", 0.99),
    ("CCC(=O)N1CCN=C1SCc1ccc(F)cc1", 0.75),
    ("c1ccc(N2CCN(c3nc(-c4cccs4)nc4ccccc34)CC2)cc1", 0.81),
    ("COc1ccc(C(=O)Nc2ccc(S(=O)(=O)Nc3nccnc3OC)cc2)cc1", 1.12),
    ("CC1CCC/C(=C(\\C#N)c2nc(-c3cc4ccccc4oc3=O)cs2)C1 (configuration not stated)", 0.55),
    ("Cc1ccc(S(=O)(=O)Nc2nc3ccccc3nc2NCc2ccc3c(c2)OCO3)cc1C", 1.02),
    ("O=C1NC(=Nc2ccc(Cl)cc2)SC1Cc1cc(Cl)ccc1Cl (configuration not stated)", 1.09),
    ("CCNc1ccc(C(=O)OCC(=O)c2cc(C)n(Cc3ccc4c(c3)OCO4)c2C)cc1[N+](=O)[O-]", 1.06),
    ("COc1ccc(/C=N/Nc2cc(C)nc(-n3nc(C)cc3C)n2)cc1", 0.12),
    ("Clc1ccc(CSc2ncn[nH]2)cc1", 1.03),
    ("CCOC(=O)/C=C1\\SCC(=O)N1CCOc1cccc(Br)c1", 1.2),
    ("COc1ccc(-n2c(C)nc(=O)c(-c3ccccc3)c2C)cc1", 0.83),
    ("CCc1nnc(NC(=O)[C@@H](NC(=O)c2cccc(S(=O)(=O)N(CC)CC)c2)C(C)C)s1", 0.4),
    ("Cc1ccc(-c2noc(C3CCCN(S(=O)(=O)c4ccc5ccccc5c4)C3)n2)o1 (configuration not stated)", 1.58),
    ("N#Cc1nc(COc2ccc(F)cc2)oc1N1CCC(Cc2ccccc2)CC1", 0.99),
    ("Cc1ccc(/C=C2\\SC(=S)N(CCCC(=O)Nc3nccs3)C2=O)cc1", 0.3),
    ("O=C(CCNC(=O)Cn1ccc2ccccc2c1=O)NCCc1ccccc1Cl", 1.14),
    ("CC(C)CNC(=O)c1c(N)n(/N=C/c2ccccn2)c2nc3ccccc3nc12", 0.94),
    ("CC1CCc2c(sc3nc(CSc4ncn[nH]4)[nH]c(=O)c23)C1 (configuration not stated)", 0.81),
    ("O=C(COc1ccc(Cl)cc1)N1CCN(S(=O)(=O)c2ccccc2)CC1", 0.68),
    ("Cc1ccc(NC(=O)Cc2csc(-c3ccccc3)n2)cc1F", 1.22),
]
